Value source: PubChem BioAssay AID1159580

- Experimental details: chemical genetic growth profiling, strain panel (AID 1159580);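 note: tested at 20 µM; growth read once vehicle control cultures reached saturation at 30 °C; 1 = growth at the plate median or of vehicle wells; lower values mean less growth of the strain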
- Condition notes: S. cerevisiae deletion strains, growth OD, locus YOR070C, strain gyp1, active compounds read low
About 2,000 (36%) of roughly 5,500 compounds were called active. About 18% were inconclusive and are not listed. The list shows a part of the results.
Outcome measure: normalized growth
Just the number.

[in] // normalized growth lookup, key: CC1(C)C(O)CC(O)C2(C)C1CC(O)C1(C)C2CCC2(C)C(c3ccoc3)OC(=O)C3OC321 (stereo not given)
[out] 1

[in] Continue with CC(CCC(=O)O)[C@H]1CCC2C3CC[C@@H]4C[C@H](O)CC[C@]4(C)C3CC[C@@]21C (stereo not given in full)
[out] 0.953

[in] Continue with CC(CCC(=O)O)[C@H]1CCC2C3C(C[C@H](O)[C@@]21C)[C@@]1(C)CC[C@@H](O)C[C@H]1C[C@H]3O (stereo not given in full)
[out] 1

[in] Continue with CC(CCC(=O)O)[C@H]1CCC2C3CC[C@@H]4CCCC[C@]4(C)C3CC[C@@]21C (stereo not given in full)
[out] 0.994

[in] Continue with O=c1cc(-c2ccccc2)oc2cccc(O)c12
[out] 0.937

[in] Continue with CC(CCC(=O)O)[C@H]1CCC2C3C[C@H](O)[C@@H]4C[C@H](O)CC[C@]4(C)C3CC[C@@]21C (stereo not given in full)
[out] 1.01

[in] Continue with COC(=O)CCC(C)C1CCC2C3CC[C@@H]4C[C@H](O)CC[C@]4(C)C3C[C@H](O)[C@]12C (stereo not given in full)
[out] 0.971

[in] Continue with O=c1cc(-c2cc(O)c(O)c(O)c2)oc2cc(O)cc(O)c12
[out] 0.962

[in] Continue with CC(C)CCCC(C)C1CCC2C3CC[C@H]4CCCC[C@]4(C)C3CC[C@]12C (stereo not given in full)
[out] 1.02

[in] Continue with CN(C(=O)CN(CCO)CC(=O)N(C)C(C)(C)Cc1ccccc1)C(C)(C)Cc1ccccc1
[out] 1.02

[in] Continue with C=C1C2CC[C@@]3(C)[C@H](c4ccoc4)OC(=O)C[C@]13O[C@H]1CC(O)C(C)(C)C(CC(=O)OC)[C@@]21C (stereo not given in full)
[out] 0.978

[in] Continue with C[C@H](CCC(=O)O)[C@H]1CCC2C3C(CC[C@@]21C)[C@@]1(C)CC[C@@H](O)C[C@H]1C[C@@H]3O (stereo not given in full)
[out] 1

[in] Continue with CCN(CCCc1ccccc1)CCCc1ccccc1
[out] 0.979

[in] Continue with C=C1C2CCC3(C)C(c4ccoc4)OC(=O)CC13OC1CC(OC(C)=O)C(C)(C)C(CC(=O)OC)C12C (stereo not given)
[out] 1.02

[in] Continue with C[C@@H]1CC2C3C[C@H](F)C4=CC(=O)C=C[C@]4(C)[C@@]3(F)[C@@H](O)C[C@]2(C)[C@@]1(O)C(=O)COC(=O)C(C)(C)C (stereo not given in full)
[out] 0.999

====

Provide the recorded normalized growth for the entries that follow.
- Experimental details: chemical genetic growth profiling, strain panel (AID 1159580);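 note: tested at 20 µM; growth read once vehicle control cultures reached saturation at 30 °C; 1 = growth at the plate median or of vehicle wells; lower values mean less growth of the strain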
- Condition notes: S. cerevisiae deletion strains, growth OD, locus YGL253W, strain hxk2, active compounds read low
The campaign covered roughly 5,500 compounds. About 2,000 (36%) were called active. Not shown: some 18% with an inconclusive outcome. Some of the results follow.
Just the number.

[in] // normalized growth lookup, key: CCCCC[C@H](CC(=O)NO)C(=O)N[C@H](C(=O)N1CCC[C@H]1CO)C(C)C
[out] 1.01

[in] Continue with Nc1cc(C(Cl)=C(Cl)Cl)c(S(N)(=O)=O)cc1S(N)(=O)=O
[out] 1.01

[in] Continue with NC(N)=O
[out] 1.01

[in] Continue with NC(Cc1ccc(F)cc1)C(=O)O (stereo unspecified)
[out] 1.04

[in] Continue with C=C1C2CC[C@@]3(C)[C@H](c4ccoc4)OC(=O)C[C@]13O[C@H]1CC(O)C(C)(C)C(CC(=O)OC)[C@@]21C (stereo partly specified)
[out] 0.972

[in] Continue with CCOC(=O)[C@H](CCc1ccccc1)N[C@@H](C)C(=O)N1Cc2ccccc2C[C@H]1C(=O)O
[out] 0.926

[in] Continue with N[C@H](Cc1ccccc1)C(=O)O
[out] 1

[in] Continue with CCCC(CCC)C(=O)O
[out] 1.01

[in] Continue with O=c1[nH]cnc2[nH]ncc12
[out] 0.995

[in] Continue with N[C@H](Cc1cc(I)c(Oc2ccc(O)c(I)c2)c(I)c1)C(=O)O
[out] 0.981

[in] Continue with C=C1C2CCC3(C)C(c4ccoc4)OC(=O)CC13OC1CC(OC(C)=O)C(C)(C)C(CC(=O)OC)C12C (stereo unspecified)
[out] 0.981

====

- Experimental details: chemical genetic growth profiling, strain panel (AID 1159580);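 note: tested at 20 µM; growth read once vehicle control cultures reached saturation at 30 °C; 1 = growth at the plate median or of vehicle wells; lower values mean less growth of the strain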
- Condition notes: S. cerevisiae deletion strains, growth OD, locus YMR125W, strain sto1, active compounds read low
Hit rate of the full screen: of about 5,500 compounds, about 2,000 (36%) were called active. Another 18% or so got no clear call; they are omitted. The list shows a part of the results.
Outcome measure: normalized growth
Just the number.

[in] // normalized growth lookup, key: CC(=O)N=c1sc(S(N)(=O)=O)nn1C
[out] 1.01

[in] Continue with CNCCCN1c2ccccc2CCc2ccccc21
[out] 0.985

[in] Continue with O=C(O)c1ccccc1C(=O)Nc1ccc(S(=O)(=O)Nc2nccs2)cc1
[out] 0.96

[in] Continue with CCOC(=O)[C@H](CCc1ccccc1)N[C@@H](C)C(=O)N1Cc2ccccc2C[C@H]1C(=O)O
[out] 0.989

[in] Continue with c1ccc2c(c1)CN1CCCC1=N2
[out] 1.01

[in] Continue with C[C@H](N)[C@H](O)c1cccc(O)c1
[out] 1

[in] Continue with CCN(CC)C(C)CN1c2ccccc2Sc2ccccc21 (centres undefined)
[out] 1

[in] Continue with COc1c2ccccc2nc2occc12
[out] 0.983

[in] Continue with C[C@]12C=CC(=O)C=C1CCC1C3C[C@@H](O)[C@](O)(C(=O)CO)[C@@]3(C)C[C@H](O)[C@@]12F (some centres undefined)
[out] 0.942

[in] Continue with c1ccc2nc(N3CCNCC3)ccc2c1
[out] 0.99

[in] Continue with CN[C@@H]1[C@H](OC2[C@H](O[C@H]3[C@H](O)[C@@H](O)[C@H](N=C(N)N)[C@@H](O)[C@@H]3N=C(N)N)O[C@@H](C)[C@]2(O)C=O)O[C@@H](CO)[C@H](O)[C@H]1O (some centres undefined)
[out] 0.969

[in] Continue with CN(CCC(N)CC(=O)N[C@H]1C=CC(n2ccc(N)nc2=O)O[C@@H]1C(=O)O)C(=N)N (some centres undefined)
[out] 0.686

[in] Continue with CNC(=O)Oc1ccc2c(c1)[C@]1(C)CCN(C)[C@@H]1N2C
[out] 1.04

[in] Continue with O=c1cc(-c2ccccc2)oc2cc(O)c(O)c(O)c12
[out] 0.802

[in] Continue with CC(=O)OCC(=O)[C@@]1(O)[C@H](OC(C)=O)CC2C3CCC4=CC(=O)C=C[C@]4(C)[C@@]3(F)[C@@H](O)C[C@@]21C (some centres undefined)
[out] 0.983

[in] Continue with CO[C@]12C[C@@H](COC(=O)c3cncc(Br)c3)CN(C)[C@@H]1Cc1cn(C)c3cccc2c13
[out] 0.977

[in] Continue with CC1(C)C(O)CC(O)C2(C)C1CC(O)C1(C)C2CCC2(C)C(c3ccoc3)OC(=O)C3OC321 (centres undefined)
[out] 0.98

[in] Continue with N[C@H](Cc1cc(I)c(Oc2ccc(O)c(I)c2)c(I)c1)C(=O)O
[out] 0.989

[in] Continue with Clc1ccc2c(c1)C(N1CCNCC1)=Nc1ccccc1O2
[out] 0.928

[in] Continue with CC1CCC2(OC1)OC1CC3C4CCC5C[C@@H](O)CCC5(C)C4=CCC3(C)C1[C@@H]2C (some centres undefined)
[out] 0.995

[in] Continue with CCCCCC1C(=O)CCC1CC(=O)O (centres undefined)
[out] 0.965

[in] Continue with Cc1cc(=O)oc2c(O)c(O)ccc12
[out] 0.944

[in] Continue with CN(C)C(=O)Nc1ccc(Cl)c(Cl)c1
[out] 1.04

[in] Continue with C[C@H](CCC(=O)O)[C@H]1CCC2C3C(CC[C@@]21C)[C@@]1(C)CC[C@@H](O)C[C@H]1C[C@@H]3O (some centres undefined)
[out] 1.03

[in] Continue with C=C1C2CCC3(C)C(c4ccoc4)OC(=O)CC13OC1CC(OC(C)=O)C(C)(C)C(CC(=O)OC)C12C (centres undefined)
[out] 1.01

[in] Continue with CCCCC[C@H](CC(=O)NO)C(=O)N[C@H](C(=O)N1CCC[C@H]1CO)C(C)C
[out] 1.03

[in] Continue with COc1ccc(C(=O)N2CCCC2=O)cc1
[out] 0.973

[in] Continue with CC(CCC(=O)O)[C@H]1CCC2C3C[C@H](O)[C@@H]4C[C@H](O)CC[C@]4(C)C3CC[C@@]21C (some centres undefined)
[out] 0.978

[in] Continue with Cc1ncc([N+](=O)[O-])n1CC(C)O (centres undefined)
[out] 0.945

[in] Continue with CSc1ccc2c(c1)N(CCC1CCCCN1C)c1ccccc1S2 (centres undefined)
[out] 0.95

[in] Continue with CCN(CCCc1ccccc1)CCCc1ccccc1
[out] 0.96

[in] Continue with C=C1C(C2(C)C=CC(=O)C(C)(C)C2CC(=O)OC)CC[C@@]2(C)[C@H](c3ccoc3)OC(=O)C3OC132 (some centres undefined)
[out] 0.992

[in] Continue with Nc1cc(-c2ccncc2)c[nH]c1=O
[out] 0.955

[in] Continue with CC12CC3CC(C)(C1)CC(N)(C3)C2
[out] 0.975

[in] Continue with O=c1cc(-c2ccc(O)cc2)oc2cc(O)ccc12
[out] 0.941

[in] Continue with N#C/C(=C\c1cccc(O)c1)C(=O)O
[out] 0.991

[in] Continue with CCC(=O)Nc1ccc(Cl)c(Cl)c1
[out] 0.98

[in] Continue with CN(C)CCC(c1ccc(Br)cc1)c1ccccn1 (centres undefined)
[out] 0.936

[in] Continue with C=C1C2CC[C@@]3(C)[C@H](c4ccoc4)OC(=O)C[C@]13O[C@H]1CC(O)C(C)(C)C(CC(=O)OC)[C@@]21C (some centres undefined)
[out] 0.972

[in] Continue with O=c1[nH]cnc2[nH]ncc12
[out] 0.998

[in] Continue with CN(C)N=Nc1nc[nH]c1C(N)=O
[out] 0.935

[in] Continue with O=c1cc(-c2ccccc2)oc2cccc(O)c12
[out] 1

[in] Continue with COc1cc(S(C)=O)ccc1-c1nc2ncccc2[nH]1 (centres undefined)
[out] 0.927

[in] Continue with O=c1cc(-c2ccccc2)oc2cc(O)c(O)cc12
[out] 1.02
